system: Homo sapiens; test: Toxicity in human patient infected with Trypanosoma cruzi assessed as occurrence of dolichocolon at 5 mg/kg/day for 60 days; assay type: organism-based, Colon; conditions: in vivo, 1440 h

[
  {
    "COMPOUND": "O=C(Cn1ccnc1[N+](=O)[O-])NCc1ccccc1 [BENZNIDAZOLE]",
    "UOM": "%",
    "Activity": 1.9
  }
]

Provenance of the data: ChEMBL document CHEMBL1671762
